system: KM12 colon; assay: NCI tumour cell line growth inhibition, 48 h
Reported TGI values for a set of compounds

O=C(Nc1cccc(-n2cc(-c3ccncc3)c(-c3ccc(Cl)c(O)c3)n2)c1)Nc1ccc(Cl)c(C(F)(F)F)c1 :: 3.43 µM
CCCS(=O)(=O)Nc1ccc(F)c(C(=O)c2c[nH]c3ncc(Cl)cc23)c1F :: > 79.8 µM
N#CC(/C(CCCC(=O)Nc1cccc([N+](=O)[O-])c1)=N/NC(=O)c1cc2ccccc2cc1O)c1ccccc1 (stereo unspecified) :: > 100 µM
CC12CCC(C(Br)(Br)C1=O)C2(C)C (stereo unspecified) :: 16.1 µM
CC(=O)C1=C(c2ccccc2)N(C2OC(CO)C(O)C(O)C2O)C(S)=C(C#N)C1c1ccc(Cl)cc1 (stereo unspecified) :: 42.1 µM

### Prompt Reported TGI for KM12 colon, given O=C1OCC=C1COC1OC(CO)C(O)C(O)C1O (stereo unspecified) ?
### Response > 100 µM
